Each recorded value in this set is attributed to patent US20120045438A1.

targetOrSystem: T1, human IL-13 R130Q variant (R110Q of the mature chain) (human, UniProt P35225 35-146, Biotinylated on amines (NHS-LC-biotin, 4:1) in ELISA, panning and competition assays. The letters are unchanged.)
T1 construct: R130Q counts from Met 1 of the signal peptide, R110Q on the mature chain; Bought from Peprotech; also called IL-13 R110Q; b-R130Q
T1 sequence (P35225 35-146 limits assumed, stated change not applied): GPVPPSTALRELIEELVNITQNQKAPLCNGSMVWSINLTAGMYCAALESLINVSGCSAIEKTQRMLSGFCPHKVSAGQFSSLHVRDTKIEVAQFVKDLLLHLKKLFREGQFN
assayMethodText: direct binding ELISA, mAb captured by anti-human Fc, biotinylated IL-13 R130Q, crude supernatant;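 note: 100% is the positive control mAb signal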
measuredMetric: Percent IL-13 R130Q (30 ng/ml) Binding
// unit must come after the numeric part

The following binders have reported results that may help.
Lc10Hc2 (antibody, V domains shown) VH: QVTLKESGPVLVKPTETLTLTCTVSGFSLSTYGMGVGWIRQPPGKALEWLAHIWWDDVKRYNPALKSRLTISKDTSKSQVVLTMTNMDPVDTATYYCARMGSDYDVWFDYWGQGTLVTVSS VL: DIQLTQSPSFLSASVGDRVTITCRASKSISKYLAWYQQKPGKAPKLLIYSGSTLQSGVPSRFSGSGSGTEFTLTISSLQPEDFATYYCQQHNEYPYTFGGGTKVEIK
78.9%
Lc7Hc6 (antibody, V domains shown) VL: DIQLTQSPSSLSASVGDRVTITCRASKSISKYLAWYRQKPGKVPKLLIYSGSTLQSGVPSRFSGSGSGTDFTLTISSLQPEDVATYYGQQHNEYPYTFGQGTKLEIK VH: QVQLVESGGGVVQPGRSLRLSCAASGFSLSTYGMGVGWVRQAPGKGLEWVAHIWWDDVKRYNPALKSRFTISRDNSKNTLYLQMNSLRAEDTAVYYCARMGSDYDVWFDYWGQGTLVTVSS
-0.3%
Lc6Hc2 (antibody, V domains shown, also called mAb 62; HFA62) VH: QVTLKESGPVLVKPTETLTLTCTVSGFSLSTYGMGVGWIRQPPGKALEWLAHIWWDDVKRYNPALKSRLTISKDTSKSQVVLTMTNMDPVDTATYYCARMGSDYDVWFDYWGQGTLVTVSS VL: EIVLTQSPATLSLSPGERATLSCRASKSISKYLAWYQQKPGQAPRLLIYSGSTLQSGIPARFSGSGSGTDFTLTISSLEPEDFAVYYCQQHNEYPYTFGQGTKLEIK
86.1%

q: For the binder shown here, Lc11Hc2 (antibody, V domains shown) VH: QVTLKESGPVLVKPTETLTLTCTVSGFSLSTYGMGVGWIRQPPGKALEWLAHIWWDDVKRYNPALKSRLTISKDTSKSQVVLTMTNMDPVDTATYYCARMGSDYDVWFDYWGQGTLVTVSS VL: AIRMTQSPSSFSASTGDRVTITCRASKSISKYLAWYQQKPGKAPKLLIYSGSTLQSGVPSRFSGSGSGTDFTLTISCLQSEDFATYYCQQHNEYPYTFGGGTKVEIK , give the reported Percent IL-13 R130Q (30 ng/ml) Binding.
a: 92.2%

q: Let us now turn to Lc2Hc2 (antibody, V domains shown) VH: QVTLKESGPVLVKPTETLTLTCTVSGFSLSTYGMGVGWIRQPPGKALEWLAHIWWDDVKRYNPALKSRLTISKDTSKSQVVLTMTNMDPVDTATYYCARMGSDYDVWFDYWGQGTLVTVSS VL: DIQMTQSPSSLSASVGDRVTITCRASKSISKYLAWYQQKPGKAPKLLIYSGSTLQSGVPSRFSGSGSGTDFTLTISSLQPEDFATYYCQQHNEYPYTFGQGTKLEIK
a: 84%

q: Let us now turn to Lc3Hc6 (antibody, V domains shown) VH: QVQLVESGGGVVQPGRSLRLSCAASGFSLSTYGMGVGWVRQAPGKGLEWVAHIWWDDVKRYNPALKSRFTISRDNSKNTLYLQMNSLRAEDTAVYYCARMGSDYDVWFDYWGQGTLVTVSS VL: AIQLTQSPSSLSASVGDRVTITCRASKSISKYLAWYQQKPGKAPKLLIYSGSTLQSGVPSRFSGSGSGTDFTLTISSLQPEDFATYYCQQHNEYPYTFGGGTKVEIK
a: 26.6%
